Below, each of the compounds is paired with its reported relative viability EC50 value.
- Tested on: HepG2
- ASSAY_SUMMARY: relative viability EC50 (midpoint between 100% and the lowest measured viability); higher = less toxic
- MEASUREMENT_SETUP: 72 h
Counter-ions that a name gives are not always drawn.

COMPOUND: Oc1nc(-c2ccc(C(F)(F)F)cc2)nc2c1CSCC2
relative viability EC50: > 10 µM
//
COMPOUND: C/C=C/c1cc(OC)c(OC)cc1OC
relative viability EC50: > 10 µM
//
COMPOUND: Cc1ccc(CC2(O)CCN(CCOc3ccc(O)cc3)CC2)cc1
relative viability EC50: > 10 µM
//
COMPOUND: O=C(O)c1ccc2nc(-c3cc(Cl)cc(Cl)c3)oc2c1
relative viability EC50: > 10 µM
//
COMPOUND: CCC(CC)(CC(=O)Nc1cccc(/C=C/c2nc(C3CCC3)cs2)c1)C(=O)O
relative viability EC50: > 10 µM
//
COMPOUND: C[C@@H](N)[C@H]1CC[C@H](C(=O)Nc2ccncc2)CC1
relative viability EC50: > 10 µM
//
COMPOUND: CCCCCCCCCCCCCCCc1cccc(OCC(=O)NCCO)c1
relative viability EC50: > 10 µM
//
COMPOUND: CC(=O)Nc1cccc(Nc2ncnc(N3CCC(OCc4ccc(OC(F)(F)F)cc4)CC3)n2)c1C
relative viability EC50: 3.47 µM
//
COMPOUND: CN1CCCN=C1COC(=O)C(O)(c1ccccc1)C1CCCCC1 (configuration not stated)
relative viability EC50: > 10 µM
//
COMPOUND: CNC(=O)c1cccc2cc(Oc3ccnc4cc(OCC5(N)CC5)c(OC)cc34)ccc12
relative viability EC50: > 10 µM
//
COMPOUND: C#Cc1cccc2c1c(C(=O)c1ccc(Cn3c(C)nc4cnccc43)c(F)c1)cn2C(=O)N(C)C
relative viability EC50: > 10 µM
//
COMPOUND: NS(=O)(=O)c1cc2c(cc1Cl)NC(C1CC3C=CC1C3)NS2(=O)=O (configuration not stated) [cyclothiazide]
relative viability EC50: > 10 µM
//
COMPOUND: CCCCNc1ccc(C(=O)OCCN(C)C)cc1
relative viability EC50: > 10 µM
//
COMPOUND: CCN(CC)CCOC(=O)C(c1ccccc1)C1CCCCC1 (configuration not stated)
relative viability EC50: > 10 µM
//
COMPOUND: CCOC(=O)c1ncn2c1CN(C)C(=O)c1cc(N=[N+]=[N-])ccc1-2
relative viability EC50: > 10 µM
//
COMPOUND: Nc1nccc2c1ncn2C1C=C(CO)C(O)C1O (configuration not stated)
relative viability EC50: 0.832 µM
//
COMPOUND: N#CC(c1ccnc(OCc2ccc(CN3CCOCC3)cc2)n1)c1nc2ccccc2s1 (configuration not stated)
relative viability EC50: > 10 µM
//
COMPOUND: CN(C)C/C=C(/c1ccc(Br)cc1)c1cccnc1
relative viability EC50: > 10 µM
//
COMPOUND: CC(=O)OCC(=O)[C@@]12N=C(C)O[C@@H]1C[C@H]1[C@@H]3CCC4=CC(=O)C=C[C@]4(C)[C@H]3[C@@H](O)C[C@@]12C
relative viability EC50: > 10 µM
//
COMPOUND: COC[C@H](C)Oc1cc(O[C@@H](C)Cc2ccccc2)cc(C(=O)Nc2ccc(C(=O)O)cn2)c1
relative viability EC50: > 10 µM
//
COMPOUND: C=CCN1CC[C@]23c4c5ccc(O)c4O[C@H]2[C@@H](OCCOCCOCCOCCOCCOCCOCCOC)CC[C@@]3(O)[C@H]1C5
relative viability EC50: > 10 µM
//
COMPOUND: CSc1ccc([C@H]2CN3CCC[C@H]3c3ccccc32)cc1 (racemic) [McN-5652-(+/-)]
relative viability EC50: > 10 µM
//
COMPOUND: CC(=O)O[C@]1(C(C)=O)CC[C@H]2[C@@H]3C=CC4=CC(=O)CC[C@]4(C)[C@H]3CC[C@@]21C [6,7-dehydro-17-acetoxy-progesterone]
relative viability EC50: > 10 µM
//
COMPOUND: CCN(CC)CCNC(=O)c1ccc(N)cc1 [procainamide]
relative viability EC50: > 10 µM
//
COMPOUND: CCCCc1nn(-c2ccccc2C(F)(F)F)c(=O)n1Cc1ccc(-c2ccccc2S(=O)(=O)NC(=O)c2sccc2C)cc1
relative viability EC50: > 10 µM
//
COMPOUND: CN(C)C(=O)COC(=O)Cc1ccc(OC(=O)c2ccc(NC(=N)N)cc2)cc1 [Camostat mesylate]
relative viability EC50: > 10 µM
//
COMPOUND: CN(C)CCOC(c1ccccc1)c1ccccc1 [diphenhydramine]
relative viability EC50: > 10 µM
//
COMPOUND: C=CC(=O)Nc1cccc(C)c1Nc1ncc2cc(-c3c(Cl)c(OC)cc(OC)c3Cl)ccc2n1
relative viability EC50: 2.02 µM
//
COMPOUND: CCN(CC)C(=S)SSC(=S)N(CC)CC
relative viability EC50: 0.0936 µM
//
COMPOUND: COc1ccccc1Oc1c(NS(=O)(=O)c2ccc(C)cn2)nc(-c2ccncc2)nc1OC
relative viability EC50: > 10 µM
//
COMPOUND: CCCCN(CC)c1nc(C)nc2c1c(C)c(C)n2-c1c(C)cc(C)cc1C
relative viability EC50: > 10 µM
//
COMPOUND: O=C(CCCCCCC(=O)NO)NO
relative viability EC50: 2.27 µM
//
COMPOUND: Nc1c(CC(=O)O)cccc1C(=O)c1ccccc1
relative viability EC50: > 10 µM
//
COMPOUND: CC(C)C[C@H](NC(=O)CNC(=O)c1cc(Cl)ccc1Cl)B(O)O
relative viability EC50: 0.383 µM
//
COMPOUND: CCC(Cc1c(I)cc(I)c(N)c1I)C(=O)O (configuration not stated)
relative viability EC50: > 10 µM
//
COMPOUND: CNCc1ccc(-c2[nH]c3cc(F)cc4c3c2CCNC4=O)cc1
relative viability EC50: > 10 µM
//
COMPOUND: COc1cc2ncn(-c3cc(OCc4ccccc4C(F)(F)F)c(C(N)=O)s3)c2cc1OC
relative viability EC50: 0.743 µM

###

- Tested on: Caco-2
- ASSAY_SUMMARY: drug sensitivity score (DSS) for viability; higher = more toxic; extreme values may be limits of the assay
- MEASUREMENT_SETUP: 72 h
# drug sensitivity score values compiled below

COMPOUND_STRUCTURE: CCn1cc(C(=O)O)c(=O)c2cc(F)c(N3CCNCC3)cc21
drug sensitivity score: 0
--
COMPOUND_STRUCTURE: CN(C)C/C=C(/c1ccc(Br)cc1)c1cccnc1
drug sensitivity score: 0
--
COMPOUND_STRUCTURE: COc1cc2c(cc1OC)C(c1ccc(N)cc1)=NNC(=O)C2
drug sensitivity score: 0
--
COMPOUND_STRUCTURE: Nc1ccc([As](=O)(O)O)cc1
drug sensitivity score: 6
--
COMPOUND_STRUCTURE: COc1cc(C(C)=O)ccc1OCCCN1CCC(c2noc3cc(F)ccc23)CC1
drug sensitivity score: 0.8
--
COMPOUND_STRUCTURE: CCCCS(=O)(=O)N[C@@H](Cc1ccc(OCCCCC2CCNCC2)cc1)C(=O)O
drug sensitivity score: 0
--
COMPOUND_STRUCTURE: CCCC(C(=O)OCCN(CC)CC)(c1ccccc1)c1ccccc1
drug sensitivity score: 0
--
COMPOUND_STRUCTURE: CC(C)(C)[C@H]1CC[C@H](CC2=C(O)C(=O)c3ccccc3C2=O)CC1
drug sensitivity score: 0.3
--
COMPOUND_STRUCTURE: Cc1nc(C)c(C)nc1C
drug sensitivity score: 0
--
COMPOUND_STRUCTURE: Nc1ncn([C@@H]2O[C@H](CO)[C@@H](O)[C@H]2O)c(=O)n1
drug sensitivity score: 2.6

###

- Tested on: HepG2
- ASSAY_SUMMARY: cell viability relative to DMSO; higher = less toxic
- MEASUREMENT_SETUP: 72 h; 1 nM

COMPOUND: CCc1cccc(CC)c1NC(=O)c1nn(C)c2c1CCc1cnc(Nc3ccc(C(=O)NC4CCN(C)CC4)cc3OC(F)(F)F)nc1-2
cell viability, %: 114
--
COMPOUND: Cc1c(Cl)cccc1Nc1ccccc1C(=O)O
cell viability, %: 98.4
--
COMPOUND: CN1CCC(=C2c3ccccc3CCn3c(C=O)cnc32)CC1
cell viability, %: 92.7
--
COMPOUND: CCOC(=O)C1=C[C@]2(CC)CCCN3CCc4c(n1c1ccccc41)[C@@H]32
cell viability, %: 97.7
--
COMPOUND: O=[N+]([O-])c1ccc(O)c([N+](=O)[O-])c1
cell viability, %: 100
--
COMPOUND: NC(=O)C1CCCc2c1[nH]c1ccc(Cl)cc21 (centres undefined)
cell viability, %: 93.3
--
COMPOUND: CN1CCC(Nc2ncc3ncnc(Nc4ccc(F)c(Cl)c4)c3n2)CC1
cell viability, %: 102
--
COMPOUND: C=CC(=O)N1CCC[C@@H](n2nc(-c3ccc(Oc4ccccc4)cc3)c3c(N)ncnc32)C1
cell viability, %: 97
--
COMPOUND: CC(=O)OCC(=O)[C@@]12OC3(CCCC3)O[C@@H]1C[C@H]1[C@@H]3CCC4=CC(=O)C=C[C@]4(C)[C@@]3(F)[C@@H](O)C[C@@]12C [amcinonide]
cell viability, %: 108
